Value source: PubChem BioAssay (NCI)

test: NCI Yeast Anticancer Drug Screen. Data for the mec2-1 strain (AID 157); details: S. cerevisiae mec2-1 strain, at 50.0 µM, active compounds read high
Compounds without any hit were thinned out: in the full panel of roughly 79,000, 15% have a hit.
Kindly supply the reported growth inhibition values for the records listed here.
Give bare numbers, in %.

Cc1c[n+]2c(C)cccc2n1C: 27.9
Nc1ccc(-c2ccccc2)cc1[N+](=O)[O-]: -8.85
CCCCSc1nc2c([nH]1)c(=O)n(C)c(=O)n2C: 2.8
CCCNC(=O)c1cccc(-c2cccc(C(=O)NCCC)c2)c1: -10.3
CCC/C=N/NC(=O)CCCCCCCCCCCCCCCCC: 7.95
CCOC(=O)C(CCC#N)(CCC#N)C(C)=O: -1.65

Consider now this further compound.
Item under review: CC(C)C(C(=O)O)N(CC1(O)OCC(O)C(O)C1O)N=O (configuration not stated) . Reported growth inhibition?
-18.4
